Every entry's value here was drawn from patent US20220363668A1.

Biological target: Human FXIa (Homo sapiens, UniProt P03951)
Construct: purchased Enzyme Research Laboratories
Sequence (P03951 388-625 limits assumed): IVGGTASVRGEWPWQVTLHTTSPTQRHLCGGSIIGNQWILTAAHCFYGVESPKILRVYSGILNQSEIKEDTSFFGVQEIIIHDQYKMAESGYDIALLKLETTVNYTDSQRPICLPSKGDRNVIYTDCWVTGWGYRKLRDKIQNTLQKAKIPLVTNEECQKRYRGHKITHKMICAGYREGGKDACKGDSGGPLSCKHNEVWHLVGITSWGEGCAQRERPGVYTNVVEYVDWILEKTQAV
Sequence (P03951 19-387 partner limits assumed): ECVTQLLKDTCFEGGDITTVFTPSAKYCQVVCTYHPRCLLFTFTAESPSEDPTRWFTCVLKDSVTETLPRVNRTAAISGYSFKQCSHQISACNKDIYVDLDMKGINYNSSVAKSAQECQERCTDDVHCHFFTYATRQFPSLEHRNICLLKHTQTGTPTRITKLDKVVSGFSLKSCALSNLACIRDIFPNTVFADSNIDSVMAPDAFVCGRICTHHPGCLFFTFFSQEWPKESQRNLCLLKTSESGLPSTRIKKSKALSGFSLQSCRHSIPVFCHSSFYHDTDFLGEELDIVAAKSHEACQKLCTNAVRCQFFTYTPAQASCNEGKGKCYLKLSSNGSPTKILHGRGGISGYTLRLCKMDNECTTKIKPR
Experiment: Determination of the % Inhibition for FXIa (IC50, fluorogenic substrate Z-Gly-Pro-Arg-AFC)
Assay type: biochemical
Conditions: Selectivity, Human FXIa (Enzyme Research Laboratories), 25° C.
Protocol: Determination of the % Inhibition for FXIa FXIa inhibitory activity in vitro was determined using standard published methods (see e.g. Johansen et al., Int. J. Tiss. Reac. 1986, 8, 185; Shori et al., Biochem. Pharmacol., 1992, 43, 1209; Stürzebecher et al., Biol. Chem. Hoppe-Seyler, 1992, 373, 1025). […] Residual enzyme activity (initial rate of reaction) was determined by measuring the change in fluorescence at 410 nm and the IC50 value for the test compound was determined.
pIC50: −log10 of the molar value.
recorded metric: pIC50

Example results:
CN1CCC(OCc2ccc(NCc3ccc4c(N)nccc4c3)nc2)CC1: < 4.40
CN1CCC(Oc2ccc(NCc3ccc4c(N)nccc4c3)cc2)CC1: < 4.40

Q: Name the recorded pIC50 of the item CN1CCC(COc2ccc(NCc3ccc4c(N)nccc4c3)nc2)CC1 in your answer.
Result: < 4.40
